system: Ileum; assay: Antispasmodic activity in guinea pig ileum assessed as inhibition of histamine-induced tissue contraction at 10^-8 to 10^-5 M after 30 mins; format: functional, Cavia porcellus
Reported inhibition (INH) values for a set of compounds
Just the number in %, nothing appended.

C[C@H](CC[C@@]1(O)O[C@H]2C[C@H]3[C@@H]4CC=C5C[C@@H](O)C[C@@H](O[C@@H]6OC[C@@H](O)[C@H](O)[C@H]6O)[C@]5(C)[C@H]4CC[C@]3(C)[C@H]2[C@@H]1C)CO[C@@H]1O[C@H](C)[C@@H](O)[C@H](O)[C@@H]1O [TROPEOSIDE B1] | 50
C[C@H](CC[C@@]1(O)O[C@H]2C[C@H]3[C@@H]4CC=C5C[C@@H](O)C[C@@H](O[C@@H]6O[C@H](CO)[C@H](O)[C@H](O)[C@H]6O)[C@]5(C)[C@H]4CC[C@]3(C)[C@H]2[C@@H]1C)CO[C@@H]1O[C@H](C)[C@@H](O)[C@H](O)[C@@H]1O [TROPEOSIDE A1] | 50
C[C@H]1[C@H]2[C@H](C[C@H]3[C@@H]4C[C@@H](O)[C@H]5C[C@@H](O[C@@H]6O[C@H](CO)[C@H](O[C@@H]7O[C@H](CO)[C@@H](O)[C@H](O)[C@H]7O)[C@H](O)[C@H]6O)[C@H](O)C[C@]5(C)[C@H]4CC[C@]23C)O[C@]12CC[C@@H](CO)CO2 [ATROVIOLACEOSIDE] | 0
C[C@H](CC[C@]1(O)O[C@H]2C[C@H]3[C@@H]4CC=C5C[C@@H](O)C[C@@H](O[C@@H]6O[C@H](CO)[C@H](O)[C@H](O)[C@H]6O)[C@]5(C)[C@H]4CC[C@]3(C)[C@H]2[C@@H]1C)CO[C@@H]1O[C@H](C)[C@@H](O)[C@H](O)[C@@H]1O [TROPEOSIDE A2] | 50

We now examine a further compound.
inhibition (INH) in this record for C[C@H](CC[C@]1(O)O[C@H]2C[C@H]3[C@@H]4CC=C5C[C@@H](O)C[C@@H](O[C@@H]6OC[C@@H](O)[C@H](O)[C@H]6O)[C@]5(C)[C@H]4CC[C@]3(C)[C@H]2[C@@H]1C)CO[C@@H]1O[C@H](C)[C@@H](O)[C@H](O)[C@@H]1O [TROPEOSIDE B2] : 50
